- Tested on: carbonic anhydrase II (CA)
- Run description: Intact protein MS photoaffinity labeling screen, carbonic anhydrase
- Type: binding
- Condition info: intact protein MS after 10 min irradiation
Output met for MS labeling percentage, CA not less than 0.4%; output not met otherwise.

Molecule: CC1(CCC(=O)NCCNC(=O)c2ccncc2)N=N1 [PhP084, N1=NC1(C)CCC(=O)NCCNC(=O)c2ccncc2]
Target or test system: carbonic anhydrase II (CA)
Category label: met

Molecule: CCCc1nn(C)c(C(N)=O)c1NC(=O)CCC1(C)N=N1 [PhP082, CCCc1nn(C)c(C(=O)N)c1NC(=O)CCC2(C)N=N2]
Target or test system: carbonic anhydrase II (CA)
Category label: not met

Molecule: CN(C)Cc1nc2ccc(NC(=O)CCC3(C)N=N3)cc2o1 [PhP055]
Target or test system: carbonic anhydrase II (CA)
Category label: not met

Molecule: COc1ccc(CNC(=O)CCC2(C)N=N2)cn1 [PhP039, COc1ccc(cn1)CNC(=O)CCC2(C)N=N2]
Target or test system: carbonic anhydrase II (CA)
Category label: met

Molecule: CC(C)CN1CCOC(CNC(=O)CCC2(C)N=N2)C1 (stereo not shown) [PhP046, CC(C)CN1CCOC(C1)CNC(=O)CCC2(C)N=N2]
Target or test system: carbonic anhydrase II (CA)
Category label: not met

Molecule: CC1(CCC(=O)NCC(C)(C)NS(C)(=O)=O)N=N1 [PhP045, CS(=O)(=O)NC(C)(C)CNC(=O)CCC1(C)N=N1]
Target or test system: carbonic anhydrase II (CA)
Category label: met

====

- Test system: lysozyme (Lyo)
- Run description: Intact protein MS photoaffinity labeling screen, lysozyme
- Format: binding
- Condition info: intact protein MS after 10 min irradiation
MS labeling percentage, Lyo reference

Compound: CC1(CCC(=O)NCc2c(O)ccc3ccccc23)N=N1
MS labeling percentage, Lyo: 2.2%
--
Compound: Cc1noc(C)c1-c1ccc(CNC(=O)CCC2(C)N=N2)cc1
MS labeling percentage, Lyo: 7.7%
--
Compound: Cc1nc(CCNC(=O)CCC2(C)N=N2)sc1C [PhP092, Cc1nc(sc1C)CCNC(=O)CCC2(C)N=N2]
MS labeling percentage, Lyo: 35.6%
--
Compound: CCN(CCCNC(=O)CCC1(C)N=N1)c1ccccc1
MS labeling percentage, Lyo: 2.1%
--
Compound: CC1(CCC(=O)NCc2ccc(-c3ccc(O)cc3)cc2)N=N1
MS labeling percentage, Lyo: 4.8%
--
Compound: CC1(CCC(=O)NCCNC(=O)Nc2ccccc2)N=N1
MS labeling percentage, Lyo: 0.9%
--
Compound: Cc1nn(C)cc1CNC(=O)CCC1(C)N=N1
MS labeling percentage, Lyo: 0%
--
Compound: Cc1cccc2nc(CNC(=O)CCC3(C)N=N3)[nH]c12
MS labeling percentage, Lyo: 0%
--
Compound: Cc1nnc(CNC(=O)CCC2(C)N=N2)[nH]1 [PhP093, Cc1nnc([nH]1)CNC(=O)CCC2(C)N=N2]
MS labeling percentage, Lyo: 0%
--
Compound: COc1ccc(-c2csc(CCNC(=O)CCC3(C)N=N3)n2)cc1
MS labeling percentage, Lyo: 0%
--
Compound: Cn1ccnc1CCNC(=O)CCC1(C)N=N1
MS labeling percentage, Lyo: 0%
--
Compound: CC1(CCC(=O)NCc2ccc(-n3ccnc3)cc2)N=N1
MS labeling percentage, Lyo: 0%
--
Compound: CC1(CCC(=O)NCc2cccc(C(=O)OC(C)(C)C)c2)N=N1
MS labeling percentage, Lyo: 0%
--
Compound: C[C@@H](NC(=O)CCC1(C)N=N1)[C@@H](O)c1cccc(O)c1
MS labeling percentage, Lyo: 1%
--
Compound: CC1(CCC(=O)NCCNS(=O)(=O)c2cccc([N+](=O)[O-])c2)N=N1
MS labeling percentage, Lyo: 0.3%
--
Compound: CC1(CCC(=O)Nc2ccc(-c3ncccc3O)cc2)N=N1
MS labeling percentage, Lyo: 16.1%

Cited source: paper PMC11292009
